Molecular target: rat B1R (bradykinin receptor 1) (Rattus norvegicus)
Construct: expressed in transfected cells; host or cells: CHO K1 cells
Sequence (P97583 1-337): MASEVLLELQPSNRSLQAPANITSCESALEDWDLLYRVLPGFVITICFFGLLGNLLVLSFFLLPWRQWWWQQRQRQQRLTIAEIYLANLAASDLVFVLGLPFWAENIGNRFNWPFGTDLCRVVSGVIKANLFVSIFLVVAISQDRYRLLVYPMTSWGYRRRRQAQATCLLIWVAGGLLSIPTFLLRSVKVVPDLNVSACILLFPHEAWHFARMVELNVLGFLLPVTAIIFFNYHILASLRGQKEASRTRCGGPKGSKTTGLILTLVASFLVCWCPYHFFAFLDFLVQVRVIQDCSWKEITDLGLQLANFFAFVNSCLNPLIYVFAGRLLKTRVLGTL
Experiment: FLIPR Ca2+ assay (Fluo-4) on CHO K1 cells stably transfected with the B1R gene of the rat (rB1R cells): % inhibition at 10 μM / IC50, agonist Des-Arg9-bradykinin
Type: cell-based
Conditions: CHO-K1, rat B1R
Outcome measure: inhibition at 10 µM (%)

1) O=C(c1ccc2c(c1)C(NS(=O)(=O)c1ccccc1Cl)CC2)N1CCC2(CCN(c3ccncc3)CC2)C1 (stereo not shown) = 100
2) CC(C)CN1CCC2(CC1)CCN(C(=O)c1ccc3c(c1)C(NC(=O)c1cccc(Cl)c1Cl)CC3)C2 (stereo not shown) = 59
3) O=C(c1ccc2c(c1)CC[C@@H]2N1Cc2cccc(Cl)c2C1=O)N1CCC2(CCN(c3ccncc3)CC2)C1 = 98
4) O=C(NC1CCc2ccc(C(=O)N3CCC4(CCN(c5ccncc5)CC4)C3)cc21)c1ccccc1Cl (stereo not shown) = 104
5) O=C(NC1CCc2ccc(C(=O)N3CCC4(CC3)CCN(S(=O)(=O)c3ccc(F)cc3F)CC4)cc21)c1ccccc1Cl (stereo not shown) = 101
6) CC1(C)CC(NC(=O)c2ccc(Cl)cc2Cl)c2cc(C(=O)N3CCC4(CC3)CCN(c3ccncc3)CC4)ccc21 (stereo not shown) = 102
7) O=C(NC1CCc2ccc(C(=O)N3CCC4(CCN(CCCc5ccc(F)cc5)CC4)C3)cc21)c1c(F)cccc1Cl (stereo not shown) = 107
8) O=C(Nc1ccc(F)c(Cl)c1)N1CCC2(CC1)CCN(C(=O)c1ccc3c(c1)C(N(C(=O)c1ccccc1Cl)C1CC1)CC3)C2 (stereo not shown) = 77
9) O=C(NC1CCc2ccc(C(=O)N3CCC4(CC3)CCN(c3ccncc3)C4)cc21)c1ccccc1F (stereo not shown) = 103
10) O=C(NC1CCc2ccc(C(=O)N3CCC4(CCN(Cc5c(F)cccc5F)CC4)CC3)cc21)c1cc(C(F)(F)F)ccc1Cl (stereo not shown) = 59
11) N#Cc1ccccc1S(=O)(=O)N1CCC2(CCN(C(=O)c3ccc4c(c3)C(N(C(=O)c3ccccc3Cl)C3CC3)CC4)C2)CC1 (stereo not shown) = 61
12) CN(C)c1ncc(CN2CCC3(CC2)CCN(C(=O)c2ccc4c(c2)C(NC(=O)c2cc(C(F)(F)F)ccc2Cl)CC4)C3)cn1 (stereo not shown) = 62
13) O=C(N[C@H]1CCCc2ccc(C(=O)N3CCC4(CC3)CCN(c3ccncc3)CC4)cc21)c1ccccc1Cl = 103
14) Cc1nc[nH]c1CN1CCC2(CC1)CCN(C(=O)c1ccc3c(c1)C(NC(=O)c1ccccc1Cl)CC3)C2 (stereo not shown) = 90
15) O=C(c1ccc2c(c1)[C@H](N1Cc3cccc(Cl)c3C1=O)CCC2)N1CCC2(CC1)CCN(c1ccncc1)CC2 = 101
16) O=C(Cc1ccccc1Cl)NC1CCc2ccc(C(=O)N3CCC4(CC3)CCN(c3ccncc3)C4)cc21 (stereo not shown) = 101
17) O=C(NC1CCc2ccc(C(=O)N3CCC4(CC3)CCN(c3ccncc3)C4)cc21)c1c(F)cccc1Cl (stereo not shown) = 106
18) O=C(NC1CCc2ccc(C(=O)N3CCC4(CCN(Cc5cc(F)ccc5F)CC4)CC3)cc21)c1ccccc1Cl (stereo not shown) = 104
19) O=C(NC1CCc2ccc(C(=O)N3CCC4(CCN(Cc5ccc6ncccc6c5)CC4)C3)cc21)c1cc(Cl)ccc1F (stereo not shown) = 80
20) COc1cccc(F)c1CN1CCC2(CC1)CCN(C(=O)c1ccc3c(c1)C(NC(=O)c1ccccc1Cl)CC3)C2 (stereo not shown) = 99
21) CC1(C)Cc2ccc(C(=O)N3CCC4(CC3)CCN(c3ccncc3)CC4)cc2C1NC(=O)c1ccc(F)cc1Cl (stereo not shown) = 107
22) COc1ccc(CN2CCC3(CC2)CCN(C(=O)c2ccc4c(c2)C(N(C)C(=O)c2ccccc2Cl)CC4)C3)cc1F (stereo not shown) = 68
23) Cc1cc(F)ccc1S(=O)(=O)NC1c2cc(C(=O)N3CCC4(CC3)CCN(c3ccncc3)CC4)ccc2CC1(C)C (stereo not shown) = 103
24) Cc1cc2c(cc1C(=O)N1CCC3(CCN(c4ccncc4)CC3)C1)[C@H](NC(=O)c1ccccc1Cl)CC2 = 103
25) N#Cc1cccc(CN2CCC3(CC2)CCN(C(=O)c2ccc4c(c2)C(N(C(=O)c2ccccc2Cl)C2CC2)CC4)C3)c1 (stereo not shown) = 82
26) O=C(NC1CCc2ccc(C(=O)N3CCC4(CCN(Cc5ccc(F)c(F)c5)CC4)CC3)cc21)c1cc(C(F)(F)F)ccc1Cl (stereo not shown) = 78
27) N#Cc1ccccc1S(=O)(=O)N1CCC2(CCN(C(=O)c3ccc4c(c3)C(NC(=O)c3ccccc3Cl)CC4)C2)CC1 (stereo not shown) = 56
28) O=C(c1ccc2c(c1)[C@H](NS(=O)(=O)c1cccc(Cl)c1Cl)CC2)N1CCC2(CCN(c3ccncc3)CC2)C1 = 92

* * *

Listing of recorded inhibition at 10 µM by entry.
Target: rat B1R (bradykinin receptor 1) (Rattus norvegicus, UniProt P97583)
Construct: expressed in transfected cells; host or cells: CHO K1 cells
Sequence (P97583 1-337): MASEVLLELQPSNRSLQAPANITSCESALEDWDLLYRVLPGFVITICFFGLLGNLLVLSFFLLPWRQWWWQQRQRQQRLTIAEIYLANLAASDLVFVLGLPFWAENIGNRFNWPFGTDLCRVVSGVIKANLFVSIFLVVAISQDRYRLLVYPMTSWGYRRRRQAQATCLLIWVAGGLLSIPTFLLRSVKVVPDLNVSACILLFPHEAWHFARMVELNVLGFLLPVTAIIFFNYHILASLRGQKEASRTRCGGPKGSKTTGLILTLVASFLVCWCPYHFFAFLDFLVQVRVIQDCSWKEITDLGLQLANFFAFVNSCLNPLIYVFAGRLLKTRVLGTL
Assay: FLIPR Ca2+ assay (Fluo-4) on CHO K1 cells stably transfected with the B1R gene of the rat (rB1R cells): % inhibition at 10 μM / IC50, agonist Des-Arg9-bradykinin
Assay type: cell-based
Details: CHO-K1, rat B1R
Outcome measure: inhibition at 10 µM (%)

1. N#Cc1cccc(CN2CCC3(CC2)CCN(C(=O)c2ccc4c(c2)C(NC(=O)c2c(F)cccc2Cl)CC4)CC3)c1 (stereo not shown) = 97
2. CC1(C)CC(NS(=O)(=O)c2cccc(C(F)(F)F)c2)c2cc(C(=O)N3CCC4(CC3)CCN(c3ccncc3)CC4)ccc21 (stereo not shown) = 101
3. CN(C(=O)/C=C/c1ccccc1Cl)C1CCc2ccc(C(=O)N3CCC4(CC3)CCN(c3ccncc3)CC4)cc21 (stereo not shown) = 88
4. CCCC(=O)NC1CCc2ccc(C(=O)N3CCC4(CCN(c5ccncc5)CC4)C3)cc21 (stereo not shown) = 101
5. COc1cccc(F)c1CN1CCC2(CC1)CCN(C(=O)c1ccc3c(c1)C(N(C(=O)c1ccccc1Cl)C1CC1)CC3)C2 (stereo not shown) = 62
6. N#Cc1ccccc1C(=O)NC1CCc2ccc(C(=O)N3CCC4(CC3)CCN(c3ccc(C(F)(F)F)cc3)CC4)cc21 (stereo not shown) = 89
7. O=C(Cc1ccccc1Cl)N[C@@H]1CCc2ccc(C(=O)N3CCC4(CCN(c5ccncc5)CC4)C3)cc21 = 103
8. Cc1nc(CN2CCC3(CC2)CCN(C(=O)c2ccc4c(c2)C(NC(=O)c2ccccc2Cl)CC4)CC3)c[nH]1 (stereo not shown) = 102
9. O=C(NC1CCc2ccc(CC(=O)N3CCC4(CCN(CC5CCCCC5)CC4)C3)cc21)c1ccccc1Cl (stereo not shown) = 53
10. Cc1cccc(Cl)c1C(=O)NC1CCc2ccc(C(=O)N3CCC4(CCN(CCCc5ccc(F)cc5)CC4)C3)cc21 (stereo not shown) = 108
11. O=C(NC1CCc2ccc(C(=O)N3CCC4(CCN(Cc5cccnc5)CC4)CC3)cc21)c1ccccc1Cl (stereo not shown) = 94
12. Cc1cccc(Cl)c1C(=O)NC1CCc2ccc(C(=O)N3CCC4(CCN(Cc5ccc(C#N)cc5)CC4)C3)cc21 (stereo not shown) = 83
13. O=C(N[C@@H]1CCc2ccc(C(=O)N3CCC4(CCC(OCCn5ccnc5)CC4)CC3)cc21)c1ccccc1Cl = 104
14. COc1ccc(C(=O)N[C@@H]2CCc3ccc(C(=O)N4CCC5(CCN(c6ccncc6)CC5)C4)cc32)c(C)c1 = 104
15. CC1(C)CC(NC(=O)c2ccccc2C(F)(F)F)c2cc(C(=O)N3CCC4(CC3)CCN(c3ccncc3)CC4)ccc21 (stereo not shown) = 101
16. O=C(N[C@@H]1CCOc2ccc(C(=O)N3CCC4(CC3)CCN(c3ccncc3)C4)cc21)c1ccccc1Cl = 105
17. Cc1cc(F)cc(C)c1S(=O)(=O)NC1CCc2ccc(C(=O)N3CCC4(CCN(c5ccncc5)CC4)C3)cc21 (stereo not shown) = 99
18. COc1ccc(C(=O)NC2CC(C)(C)c3ccc(C(=O)N4CCC5(CC4)CCN(c4ccncc4)CC5)cc32)c(Cl)c1 (stereo not shown) = 100
19. COc1cc(C)c(C(=O)NC2CCc3ccc(C(=O)N4CCC5(CCN(c6ccncc6)CC5)C4)cc32)c(C)c1 (stereo not shown) = 93
20. CC1(C)CC(NC(=O)c2cccc(C(F)(F)F)c2Cl)c2cc(C(=O)N3CCC4(CC3)CCN(c3ccncc3)CC4)ccc21 (stereo not shown) = 105
21. Cc1nc[nH]c1CN1CCC2(CC1)CCN(C(=O)c1ccc3c(c1)C(NC(=O)c1cc(C(F)(F)F)ccc1Cl)CC3)CC2 (stereo not shown) = 95
22. COc1cc(C)c(C(=O)N[C@@H]2CCc3ccc(C(=O)N4CCC5(CCN(c6ccncc6)CC5)C4)cc32)cc1C = 106
23. O=C(NC1CCc2ccc(C(=O)N3CCC4(CCN(Cc5ccc6nccnc6c5)CC4)C3)cc21)c1ccccc1Cl (stereo not shown) = 105
24. CC1(C)CC(NC(=O)c2c(F)cccc2Cl)c2cc(C(=O)N3CCC4(CC3)CCN(c3ccncc3)CC4)ccc21 (stereo not shown) = 106
25. O=C(NC1CCc2ccc(C(=O)N3CCC4(CCN(C(=O)NC5CCCCC5)CC4)CC3)cc21)c1ccccc1Cl (stereo not shown) = 99
26. O=C(NC1CCc2ccc(C(=O)N3CCC4(CCN(Cc5csnn5)CC4)CC3)cc21)c1cc(C(F)(F)F)ccc1Cl (stereo not shown) = 85
27. COc1ccc2cc(C(=O)N[C@@H]3CCc4ccc(C(=O)N5CCC6(CC5)CCN(c5ccncc5)C6)cc43)ccc2c1 = 93
28. CN(C(=O)c1ccccc1Cl)C1CCc2ccc(C(=O)N3CCC4(CCN(Cc5c(F)cccc5Cl)CC4)C3)cc21 (stereo not shown) = 62
